target_system: T1, 4H3858-bN
T1 chain: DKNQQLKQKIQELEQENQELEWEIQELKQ
run_description: two-hybrid library CCNG1;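 further: natural log of median RNA to DNA barcode read ratio; higher means stronger binding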
readout_label: interaction score

# binder, value_observed
records = [
    ("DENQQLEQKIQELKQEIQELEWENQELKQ [4H1348-bN]", -0.748),
    ("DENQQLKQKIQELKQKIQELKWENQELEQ [4H1899-bN]", -0.633),
]

a. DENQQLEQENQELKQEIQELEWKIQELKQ [4H1222-bN]
b. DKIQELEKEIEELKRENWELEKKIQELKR [4H2134-bH]
I'm curious, which of these has a smaller interaction score number: a or b ? // return label of chosen record a
(a: -0.767, b: 0.573)
